# Tested on: EBC-1 (Squamous Cell Lung Carcinoma);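 note: after 72 h of two-drug dosing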
# assayRemarks: Bliss excess, mean over the matrix (fraction); higher = more synergy

molecule: Cc1c2c(nn1C)CSCc1cc(n(C)n1)CSc1cc(c3ccccc3c1)OCCCc1c(C(=O)O)n(C)c3c-2c(Cl)ccc13 [AZD5991] + CC1(C)CCC(CN2CCN(c3ccc(C(=O)NS(=O)(=O)c4ccc(NCC5CCOCC5)c([N+](=O)[O-])c4)c(Oc4cnc5[nH]ccc5c4)c3)CC2)=C(c2ccc(Cl)cc2)C1 [Venetoclax] (first compound max 1 µM, 7x7, partner max 1 µM)
subjectOfTest: EBC-1 (Squamous Cell Lung Carcinoma)
Bliss excess: -0.0333
//
molecule: Cc1c2c(nn1C)CSCc1cc(n(C)n1)CSc1cc(c3ccccc3c1)OCCCc1c(C(=O)O)n(C)c3c-2c(Cl)ccc13 [AZD5991] + C[C@@H](Nc1cc(F)cc(F)c1)c1cc(C(=O)N(C)C)cc2c(=O)cc(N3CCOCC3)oc12 [AZD8186] (first compound max 1 µM, 7x7, partner max 3 µM)
subjectOfTest: EBC-1 (Squamous Cell Lung Carcinoma)
Bliss excess: 0.0298
